Cited source for all entries: PubChem BioAssay AID1645887

- Experimental System: Rap guanine nucleotide exchange factor 4 (Homo sapiens)
- Experiment Description: Validation qHTS for agonist of cAMP-regulated guanine nucleotide exchange factor 4 (EPAC2);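 also: exchange makes BODIPY-GDP fluorescence drop when released from Rap1B; series mostly up to about 150 µM; % is scaled to controls: 0 for no effect and ±100 for the full control effect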
- Stated Conditions: EPAC2 Rap1B BODIPY-GDP exchange, fluorescence; active compounds read high
Hit rate of the full screen: of about 16,000 compounds, about 40 (0.2%) were called active. Roughly 1% stayed inconclusive and do not appear here. This is one part of a sample in which actives are shown more often than they occur.
Metric Name: activation (%)
Quick reminder: number only, in %, skip the unit.

# input Tell me its activation given "Cc1noc(C)c1-c1nc(NCc2cccnc2)c2ccccc2n1" as the entry.
# output -6.22

# input Tell me its activation given "COc1ccccc1-c1nccc(NCc2ccccc2)n1" as the entry.
# output -0.806

---

- Experimental System: Rap guanine nucleotide exchange factor 4 (Homo sapiens)
- Experiment Description: Validation qHTS for agonist of cAMP-regulated guanine nucleotide exchange factor 4 (EPAC2);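 also: exchange makes BODIPY-GDP fluorescence drop when released from Rap1B; series mostly up to about 150 µM; % is scaled to controls: 0 for no effect and ±100 for the full control effect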
- Stated Conditions: EPAC2 Rap1B BODIPY-GDP exchange, fluorescence; active compounds read high
Out of some 16,000 compounds screened, about 40 (0.2%) were called active. Inconclusive results (about 1%) are left out. What follows is part of a selection rich in actives, with near analogues and random picks from the rest.
Metric Name: activation

# input Tell me its activation given "COc1ccc(CN([C@H](CO)CC(C)C)S(=O)(=O)N(Cc2ccccc2)[C@H](CO)CC(C)C)cc1" as the entry.
# output -27.3% (inactive)

---

- Experimental System: Rap guanine nucleotide exchange factor 4 (Homo sapiens)
- Experiment Description: Validation qHTS for agonist of cAMP-regulated guanine nucleotide exchange factor 4 (EPAC2);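 also: exchange makes BODIPY-GDP fluorescence drop when released from Rap1B; series mostly up to about 150 µM; % is scaled to controls: 0 for no effect and ±100 for the full control effect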
- Stated Conditions: EPAC2 Rap1B BODIPY-GDP exchange, fluorescence; active compounds read high
Hit rate of the full screen: of about 16,000 compounds, about 40 (0.2%) were called active. About 1% were inconclusive and are not listed. For the sample, actives were picked, then their nearest neighbours and some compounds at random.
activation for assorted compounds
Quick reminder: number only, in %, skip the unit.

Study these solved cases before continuing.
INSERT INTO measurements (compound, assay_result) VALUES
  ('Oc1cc(-c2nc3ccccc3s2)cc2c1OCCN(Cc1cccn1-c1ccccn1)C2', 7.3),
  ('COc1ccc(C(=O)C[n+]2cccc3cccc(O)c32)cc1', -13.2),
  ('COc1ccccc1CNc1ncncc1-c1ccccc1CN(C)C', -6.39),
  ('OC(C1=C/C(=C\c2ccncc2)c2ccccc21)c1ccncc1 (stereo not given)', -21.2),
  ('N[C@@H](Cn1cc(I)c(=O)n(Cc2ccc(C(=O)O)cc2)c1=O)C(=O)O', 2.18),
  ('COc1c(O)cc2c(=O)oc3c(OC)c(O)cc4c(=O)oc1c2c34', -13.8),
  ('O=C(c1cc(C(F)(F)F)cc(C(F)(F)F)c1)N1CCC2(CCCN(Cc3ccccc3)C2)CC1', -6.26),
  ('CN(C)C(=O)c1ccc(-c2nc(N3CCOCC3)c3ccccc3n2)cc1', -5.48);

# input Tell me its activation given "OC1CCN(Cc2ccc3c(c2)CN(Cc2ccc(Oc4ncccn4)cc2)CCO3)CC1" as the entry.
# output -1.28

# input Tell me its activation given OC(c1ccc2c(c1)CN(Cc1cccn1-c1ncccn1)CCO2)C1CCCCC1 (stereo not given) as the entry.
# output -21.5

---

activation for assorted compounds
- Experimental System: Rap guanine nucleotide exchange factor 4 (Homo sapiens) (UniProt Q8WZA2)
- Sequence (Q8WZA2 whole entry, looked up): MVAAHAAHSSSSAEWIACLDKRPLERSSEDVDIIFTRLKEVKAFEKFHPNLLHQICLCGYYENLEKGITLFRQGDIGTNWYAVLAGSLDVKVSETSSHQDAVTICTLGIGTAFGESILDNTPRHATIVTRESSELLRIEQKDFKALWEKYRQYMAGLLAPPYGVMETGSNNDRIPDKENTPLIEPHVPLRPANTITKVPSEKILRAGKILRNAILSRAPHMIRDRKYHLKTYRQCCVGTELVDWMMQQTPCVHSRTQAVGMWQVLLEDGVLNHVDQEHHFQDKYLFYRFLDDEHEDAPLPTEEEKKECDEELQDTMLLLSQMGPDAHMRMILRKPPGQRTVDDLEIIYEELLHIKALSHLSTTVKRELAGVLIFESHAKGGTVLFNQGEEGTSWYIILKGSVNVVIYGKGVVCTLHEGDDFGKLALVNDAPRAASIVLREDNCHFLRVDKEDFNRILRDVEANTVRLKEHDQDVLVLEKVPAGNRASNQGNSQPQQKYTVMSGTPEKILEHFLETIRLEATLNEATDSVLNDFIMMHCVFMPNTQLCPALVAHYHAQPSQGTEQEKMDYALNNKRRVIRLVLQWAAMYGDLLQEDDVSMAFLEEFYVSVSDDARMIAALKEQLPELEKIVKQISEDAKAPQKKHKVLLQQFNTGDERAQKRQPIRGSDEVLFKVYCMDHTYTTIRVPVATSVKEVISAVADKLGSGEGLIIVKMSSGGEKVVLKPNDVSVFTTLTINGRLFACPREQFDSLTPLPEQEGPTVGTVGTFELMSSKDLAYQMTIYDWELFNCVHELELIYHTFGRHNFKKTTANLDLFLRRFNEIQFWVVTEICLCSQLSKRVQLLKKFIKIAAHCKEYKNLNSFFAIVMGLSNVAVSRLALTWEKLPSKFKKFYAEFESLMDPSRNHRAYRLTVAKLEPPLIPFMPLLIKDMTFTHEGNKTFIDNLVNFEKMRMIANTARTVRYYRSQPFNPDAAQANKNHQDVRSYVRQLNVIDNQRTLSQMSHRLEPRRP
- Experiment Description: Validation qHTS for agonist of cAMP-regulated guanine nucleotide exchange factor 4 (EPAC2);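 also: exchange makes BODIPY-GDP fluorescence drop when released from Rap1B; series mostly up to about 150 µM; % is scaled to controls: 0 for no effect and ±100 for the full control effect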
- Stated Conditions: EPAC2 Rap1B BODIPY-GDP exchange, fluorescence; active compounds read high
Out of some 16,000 compounds screened, about 40 (0.2%) were called active. Not shown: some 1% with an inconclusive outcome. This excerpt belongs to a sample that is enriched for actives.
Quick reminder: number only, in %, skip the unit.

# input Tell me its activation given "Cc1c(C(=O)NCc2ccco2)cnn1-c1ncc2c(n1)-c1ccccc1CC2" as the entry.
# output -0.162
